The following compounds each carry a recorded IC50 for HDAC1 enzyme (Homo sapiens, UniProt Q13547).
metric.name: IC50 (µM)

CC(C)c1nc2cc(/C=C/C(=O)NO)ccc2n1CC(C)(C)CN(C)C [Compound 2]: 0.38

1: CCCCCCN(CC)CCn1c(C(F)(F)F)nc2cc(/C=C/C(=O)NO)ccc21 [Compound 118]
2: CCCN(CC)CCn1cnc2cc(/C=C/C(=O)NO)ccc21 [Compound 112]
// which entry has the larger IC50 value, 1 or 2 ? Answer by quoting the chosen item's label.
1
(1: 0.48 µM, 2: 0.12 µM)

I: O=C(/C=C/c1ccc2c(c1)ncn2C1CCCN(CCc2ccccc2)C1)NO (stereo not drawn) [Compound 96]
II: CCCCc1nc2cc(/C=C/C(=O)NO)ccc2n1CCCNC(C)C [Compound 47]
III: CCCCc1nc2cc(/C=C/C(=O)NO)ccc2n1C1CCN(C)C1 (stereo not drawn) [Compound 81]
Rank items: key IC50, increasing. Reply with the item labels sorted in the order that was asked for.
I, III, II

----------
System: HEP3B
assay: Cell-based proliferation assay for GI50 (CyQUANT), HEP3B
assay.setup: Homo sapiens, 96 h treatment, read-out: Cellular or Growth Inhibition Activity, GI50, HEP3B
The reader will find reported GI50 values listed item by item below.

CCCCc1nc2cc(/C=C/C(=O)NO)ccc2n1CCNC(C)C: 500 to 1000 nM
CCCCCCc1nc2cc(/C=C/C(=O)NO)ccc2n1CCN(C)C: < 500 nM
CCN(CCn1cnc2cc(/C=C/C(=O)NO)ccc21)CCC(C)(C)C: < 500 nM

Supply measured GI50 of `CN(C)CC(C)(C)Cn1c(CC(C)(C)C)nc2cc(/C=C/C(=O)NO)ccc21` in your reply.
500 to 1000 nM

Supply measured GI50 of `CCCCc1nc2cc(/C=C/C(=O)NO)ccc2n1CCN(CC)CC` in your reply.
1000 to 5000 nM

----------
The following compounds each carry a recorded pIC50 for UniProt:Q13547.
pIC50: −log10 of the molar value.
metric.name: pIC50

Solved entries:
CCCCCCN(CC)CCn1c(C)nc2cc(/C=C/C(=O)NO)ccc21: 7.00
CCCCN(CC)CCn1cnc2cc(/C=C/C(=O)NO)ccc21: 7.28
CCCCc1nc2cc(/C=C/C(=O)NO)ccc2n1CCN(C)C(C)C: 7.36

1: CCN(CC)CCn1c(CNC(=O)C(C)(C)C)nc2cc(/C=C/C(=O)NO)ccc21
2: CCCCN(CC)CCn1c(C(F)(F)F)nc2cc(/C=C/C(=O)NO)ccc21
// which entry has the larger pIC50 value, 1 or 2 ? Answer by quoting the chosen item's label.
1
(1: 7.15, 2: 6.72)

----------
study.target: HDAC1 enzyme (Homo sapiens)
Sequence (Q13547 whole entry): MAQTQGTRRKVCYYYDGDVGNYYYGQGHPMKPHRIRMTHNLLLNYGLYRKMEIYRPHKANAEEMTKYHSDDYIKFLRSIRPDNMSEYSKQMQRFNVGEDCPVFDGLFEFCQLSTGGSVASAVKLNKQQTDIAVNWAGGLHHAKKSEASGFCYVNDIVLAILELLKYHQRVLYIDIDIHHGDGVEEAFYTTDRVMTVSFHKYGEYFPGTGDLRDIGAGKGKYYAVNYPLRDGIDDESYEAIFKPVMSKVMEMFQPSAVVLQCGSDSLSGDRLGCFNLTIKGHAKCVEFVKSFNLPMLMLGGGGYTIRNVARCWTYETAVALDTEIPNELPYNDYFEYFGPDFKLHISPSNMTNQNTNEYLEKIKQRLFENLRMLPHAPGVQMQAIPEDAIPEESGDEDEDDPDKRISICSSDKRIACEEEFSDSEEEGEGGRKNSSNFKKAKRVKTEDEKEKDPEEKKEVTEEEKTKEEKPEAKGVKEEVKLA
metric.name: IC50 (µM)

Solved entries:
CC(C)NCCCn1c(CC(C)(C)C)nc2cc(/C=C/C(=O)NO)ccc21 [Compound 33]: 0.23
CCCCCCc1nc2cc(/C=C/C(=O)NO)ccc2n1CCNC [Compound 74]: 0.028
CCCCCN1CCCC(n2cnc3cc(/C=C/C(=O)NO)ccc32)C1 (stereo not drawn) [Compound 94]: 0.064
CCCCc1nc2cc(/C=C/C(=O)NO)ccc2n1CCN(CC)CCCO [Compound 91]: 0.06
CCCc1nc2cc(/C=C/C(=O)NO)ccc2n1CCN(C)CCC(C)(C)C [Compound 136]: 0.053

a: CCCCCCc1nc2cc(/C=C/C(=O)NO)ccc2n1C1CCCN(CCO)C1 (stereo not drawn) [Compound 90]
b: C#CCCc1nc2cc(/C=C/C(=O)NO)ccc2n1CCN(CC)CC [Compound 12]
// which entry has the larger IC50 value, a or b ? Answer by quoting the chosen item's label.
a

1: CCCc1nc2cc(/C=C/C(=O)NO)ccc2n1CCNCCC(C)(C)C [Compound 130]
2: CCN(CC)CCn1c(CCC(F)(F)F)nc2cc(/C=C/C(=O)NO)ccc21 [Compound 14]
3: CC/C=C\CCc1nc2cc(/C=C/C(=O)NO)ccc2n1CCN(C(C)C)C(C)C [Compound 27]
4: CC(Cc1nc2cc(/C=C/C(=O)NO)ccc2n1CCNC(C)C)CC(C)(C)C (stereo not drawn) [Compound 39]
5: CC(C)(C)CCN1CCC(n2cnc3cc(/C=C/C(=O)NO)ccc32)C1 (stereo not drawn) [Compound 99]
Hey, quick one: sort these by IC50, largest value first please. Reply with the item labels sorted in the order that was asked for.
3, 5, 2, 1, 4

a: CCCCCN(CCn1cnc2cc(/C=C/C(=O)NO)ccc21)C(C)C [Compound 109]
b: CCCCCCCN(CC)CCn1cnc2cc(/C=C/C(=O)NO)ccc21 [Compound 89]
c: CC(C)CN(CCn1cnc2cc(/C=C/C(=O)NO)ccc21)CC(C)C [Compound 125]
Rank items: key IC50, increasing. Reply with the item labels sorted in the order that was asked for.
a, b, c
(a: 0.048 µM, b: 0.08 µM, c: 0.16 µM)

1: CCCCCc1nc2cc(/C=C/C(=O)NO)ccc2n1CCN(C)C [Compound 65]
2: O=C(/C=C/c1ccc2c(c1)ncn2C1CCN(CCCc2ccccc2)C1)NO (stereo not drawn) [Compound 98]
3: CCN(CCn1cnc2cc(/C=C/C(=O)NO)ccc21)CCC(C)(C)C [Compound 111]
Hey, quick one: sort these by IC50, largest value first please. Reply with the item labels sorted in the order that was asked for.
2, 1, 3

----------
The following compounds each carry a recorded pIC50 for UniProtKB Q13547.
pIC50: −log10 of the molar value.
metric.name: pIC50

Solved entries:
CCCCCc1nc2cc(/C=C/C(=O)NO)ccc2n1CCNC [Compound 75]: 7.30
CCCc1nc2cc(/C=C/C(=O)NO)ccc2n1CCN(CC)CC [Compound 42]: 6.82
CCCCc1nc2cc(/C=C/C(=O)NO)ccc2n1C1CCNCC1 [Compound 70]: 7.17
CCCCCCc1nc2cc(/C=C/C(=O)NO)ccc2n1C1CCNC1 (stereo not drawn) [Compound 80]: 7.40
CC(C)N(CCn1c(CC(C)(C)C)nc2cc(/C=C/C(=O)NO)ccc21)C(C)C [Compound 20]: 6.59
CC(C)(C)CNCCn1cnc2cc(/C=C/C(=O)NO)ccc21 [Compound 133]: 7.14

a: CC(C)CCN(CCn1cnc2cc(/C=C/C(=O)NO)ccc21)C(C)C [Compound 121]
b: CCCCCCCCc1nc2cc(/C=C/C(=O)NO)ccc2n1CCNC [Compound 76]
c: CN(C)CCn1c(CC(F)(F)F)nc2cc(/C=C/C(=O)NO)ccc21 [Compound 66]
Rank items: key pIC50, increasing. Reply with the item labels sorted in the order that was asked for.
c, a, b
(c: 6.47, a: 7.10, b: 7.74)

----------
The following molecules each carry a recorded pIC50 for HDAC1 enzyme (Homo sapiens, UniProt Q13547).
pIC50: −log10 of the molar value.
metric.name: pIC50

CC(C)(C)CCNCCn1c(CC(C)(C)C)nc2cc(/C=C/C(=O)NO)ccc21 [Compound 131]: 7.18
CCCCCc1nc2cc(/C=C/C(=O)NO)ccc2n1CCN(C)CC [Compound 79]: 7.40
CCN(CC)CCn1c(CCCCC#N)nc2cc(/C=C/C(=O)NO)ccc21 [Compound 101]: 7.10

----------
The following compounds each carry a recorded IC50 for UniProtKB Q13547.
metric.name: IC50 (nM)

P: CC(Cc1nc2cc(/C=C/C(=O)NO)ccc2n1CCCNC(C)C)CC(C)(C)C (stereo not drawn)
Q: CC(C)(C)CCN(CCn1cnc2cc(/C=C/C(=O)NO)ccc21)CC(F)(F)F
Select the item whose IC50 value is smaller, choosing between P and Q . Answer by quoting the chosen item's label.
P

I: CC(C)Cc1nc2cc(/C=C/C(=O)NO)ccc2n1CCNC(C)C
II: CC(C)(C)CCNCCn1cnc2cc(/C=C/C(=O)NO)ccc21
III: CC(Cc1nc2cc(/C=C/C(=O)NO)ccc2n1CCN(C(C)C)C(C)C)CC(C)(C)C (stereo not drawn)
Hey, quick one: sort these by IC50, largest value first please. Reply with the item labels sorted in the order that was asked for.
III, I, II
(III: 560 nM, I: 82 nM, II: 42 nM)

I: O=C(/C=C/c1ccc2c(c1)ncn2C1CCCN(CCCc2ccccc2)C1)NO (stereo not drawn)
II: CC(C)N(CCCC(F)(F)F)CCn1cnc2cc(/C=C/C(=O)NO)ccc21
Select the item whose IC50 value is smaller, choosing between I and II . Answer by quoting the chosen item's label.
II
(II: 63 nM, I: 100 nM)

a: CCCCCCN(CC)CCn1cnc2cc(/C=C/C(=O)NO)ccc21
b: CC(Cc1nc2cc(/C=C/C(=O)NO)ccc2n1CCN(C)C)CC(C)(C)C (stereo not drawn)
// which entry has the larger IC50 value, a or b ? Answer by quoting the chosen item's label.
a
(a: 100 nM, b: 66 nM)
